system: phosphorylated tau (P-tau); assay: P-tau level ELISA in SH-SY5Y cells; details: Homo sapiens, 24 h, read-out: P-tau inhibition
observation_type: inhibition at 20 µM

Worked examples follow.
CN(NC(=O)CC[C@H](N)C(=O)O)c1ccccc1 :: 10 to 15%
Cc1cccc(N(C)NC(=O)CC[C@H](N)C(=O)O)c1 :: 10 to 15%
Cl.N[C@@H](CCC(=O)NNC(=O)c1ccccc1)C(=O)O [RA-Benzo, N^5-benzamido-L-glutamine hydrochloride] :: 10 to 15%

Query: Write down the reported inhibition at 20 µM of Cl.N[C@@H](CCC(=O)NNC(=O)c1ccccc1O)C(=O)O , test system: phosphorylated tau (P-tau).
Reply: ~40%

* * *

assay: Chemical stability in water (10 mM) at 60 °C by HPLC; assay type: physicochemical; settings: storage at 60 °C, HPLC, 76 h
Kindly state Chemical stability, 76 h for each of the entries shown.
One number for each entry, in %.

Worked examples follow.
N[C@@H](CCC(=O)NNc1ccccc1O)C(=O)O [Ramalin, reference compound] :: 7.6
Cc1cccc(N(C)NC(=O)CC[C@H](N)C(=O)O)c1 :: 91.0
Cl.N[C@@H](CCC(=O)NNC(=O)c1ccccc1)C(=O)O [RA-Benzo, N^5-benzamido-L-glutamine hydrochloride] :: 91.5
Cl.N[C@@H](CCC(=O)NNC(=O)c1ccccc1O)C(=O)O :: 93.3

Here's the next entry for you.
Query: Quick one: Chemical stability, 76 h of CN(NC(=O)CC[C@H](N)C(=O)O)c1ccccc1 ?
Reply: 91.1
